// values below are reported kon
- tested target: Neutrophil elastase (Homo sapiens)
- Sequence (P08246 whole entry): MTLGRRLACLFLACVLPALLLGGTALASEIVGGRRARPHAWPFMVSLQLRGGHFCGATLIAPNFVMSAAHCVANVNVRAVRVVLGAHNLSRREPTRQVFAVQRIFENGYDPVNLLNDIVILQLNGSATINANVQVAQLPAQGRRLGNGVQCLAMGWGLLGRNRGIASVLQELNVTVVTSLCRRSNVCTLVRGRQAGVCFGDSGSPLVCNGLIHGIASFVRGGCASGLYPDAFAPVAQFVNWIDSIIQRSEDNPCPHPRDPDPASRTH
- run description: Component deacylation rate constant for interaction with human leukocyte elastase
- setup conditions: read-out: kon (M-1-s-1)
reported endpoint: kon

>>> result("CCC(CC)Nc1nc2cccc(C)c2c(=O)o1")
"7760 M⁻¹ s⁻¹"
>>> result("CCOC(=O)[C@H](C)Nc1nc2ccccc2c(=O)o1")
"2570 M⁻¹ s⁻¹"
>>> result("CC(C)C[C@H](NC(=O)[C@@H]1CCCN1c1nc2ccccc2c(=O)o1)C(=O)NCC(N)=O")
"11000 M⁻¹ s⁻¹"
>>> result("Cc1nc2c(N)cccc2c(=O)o1")
"2000 M⁻¹ s⁻¹"
>>> result("O=c1oc(NCCc2ccccc2)nc2ccccc12")
"1120 M⁻¹ s⁻¹"
>>> result("C/C=C/c1cccc2nc(OCC)oc(=O)c12")
"347000 M⁻¹ s⁻¹"
>>> result("CC(C)Nc1nc2ccccc2c(=O)o1")
"58900 M⁻¹ s⁻¹"
>>> result("COc1cc(C)c2c(=O)oc(NC(C)C)nc2c1")
"20900 M⁻¹ s⁻¹"
>>> result("O=c1oc(/C=C/c2ccccc2)nc2ccccc12")
"389 M⁻¹ s⁻¹"
>>> result("CCOc1nc2cc(N(C)C)ccc2c(=O)o1")
"2880 M⁻¹ s⁻¹"
>>> result("CC(C)CN(CC(C)C)c1nc2ccccc2c(=O)o1")
"151 M⁻¹ s⁻¹"
>>> result("CCCCNc1nc2cc(N)ccc2c(=O)o1")
"2820 M⁻¹ s⁻¹"
>>> result("COc1cc2nc(SCc3c[nH]cn3)oc(=O)c2cc1OC")
"6920 M⁻¹ s⁻¹"
>>> result("Cc1cccc2nc(C(F)(F)F)oc(=O)c12")
"129000 M⁻¹ s⁻¹"
>>> result("CCOc1nc2cccc(C(Br)Br)c2c(=O)o1")
"1e+07 M⁻¹ s⁻¹"
>>> result("CCCNC(=O)Nc1ccc2c(=O)oc(NC(C)C)nc2c1")
"12600 M⁻¹ s⁻¹"
>>> result("CCCCNc1nc2cccc(CC)c2c(=O)o1")
"129000 M⁻¹ s⁻¹"
>>> result("CCSc1nc2cc(OC)c(OC)cc2c(=O)o1")
"100000 M⁻¹ s⁻¹"

Value source: BindingDB's records for doi:10.1021/jm00164a002
